- experimental system: recombinant guanylate cyclase reporter cell line (Rattus norvegicus, UniProt P19686+P20595)
- Construct: expressed in transfected cells
- Sequence (P19686 whole entry): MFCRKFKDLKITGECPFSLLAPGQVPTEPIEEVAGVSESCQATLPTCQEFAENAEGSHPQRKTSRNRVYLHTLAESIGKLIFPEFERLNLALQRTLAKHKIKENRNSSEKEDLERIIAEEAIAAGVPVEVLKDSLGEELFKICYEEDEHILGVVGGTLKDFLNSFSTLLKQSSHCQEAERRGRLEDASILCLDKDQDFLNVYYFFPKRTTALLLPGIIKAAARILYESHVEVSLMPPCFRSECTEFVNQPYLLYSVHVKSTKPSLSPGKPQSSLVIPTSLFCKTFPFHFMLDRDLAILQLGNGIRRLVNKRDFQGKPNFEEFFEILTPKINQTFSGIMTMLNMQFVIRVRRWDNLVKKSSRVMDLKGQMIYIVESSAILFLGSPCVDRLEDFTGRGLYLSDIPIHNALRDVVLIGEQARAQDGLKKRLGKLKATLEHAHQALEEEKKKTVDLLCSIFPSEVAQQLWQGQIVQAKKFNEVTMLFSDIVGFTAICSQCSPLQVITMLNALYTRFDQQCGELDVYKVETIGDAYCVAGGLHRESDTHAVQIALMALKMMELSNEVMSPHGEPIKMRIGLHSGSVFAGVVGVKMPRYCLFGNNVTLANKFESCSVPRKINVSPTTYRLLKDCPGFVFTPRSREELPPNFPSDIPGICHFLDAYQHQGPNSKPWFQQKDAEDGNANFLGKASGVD
- Sequence (P20595 whole entry): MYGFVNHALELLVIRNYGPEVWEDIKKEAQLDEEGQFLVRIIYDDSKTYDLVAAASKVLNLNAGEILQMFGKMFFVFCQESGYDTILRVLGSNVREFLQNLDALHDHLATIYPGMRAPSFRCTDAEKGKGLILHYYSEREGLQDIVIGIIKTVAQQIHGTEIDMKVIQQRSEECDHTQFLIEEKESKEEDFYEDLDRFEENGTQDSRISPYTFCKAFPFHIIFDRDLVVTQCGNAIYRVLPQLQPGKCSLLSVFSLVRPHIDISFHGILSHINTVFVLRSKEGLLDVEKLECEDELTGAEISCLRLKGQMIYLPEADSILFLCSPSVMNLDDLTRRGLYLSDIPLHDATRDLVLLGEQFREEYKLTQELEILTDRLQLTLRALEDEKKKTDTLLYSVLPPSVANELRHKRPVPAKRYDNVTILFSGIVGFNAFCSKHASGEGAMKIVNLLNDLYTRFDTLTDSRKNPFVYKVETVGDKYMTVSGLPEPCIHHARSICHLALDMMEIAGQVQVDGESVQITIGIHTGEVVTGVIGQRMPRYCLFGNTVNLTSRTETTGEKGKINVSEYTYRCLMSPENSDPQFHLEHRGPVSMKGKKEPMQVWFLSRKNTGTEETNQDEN
- method notes: Effect on a recombinant guanylate cyclase reporter cell line (B-2)
- Assay type: cell-based
- condition set: in some cases mean values for individual determinations
metric name: MEC (minimum effective concentration)

Consider the following illustrative entries.
molecule="CCCC(C)(N)CNC(=O)c1c(C)nn2c(OCc3cccc(F)c3F)cc(C)cc12 (racemic)" recorded_result="1.0 µM"
molecule="Cc1cc(OCc2c(F)cccc2F)n2nc(C)c(C(=O)NCC3CCC(=O)N3)c2c1 (racemic)" recorded_result="10 µM"
molecule="Cc1cc(OCc2c(F)cccc2F)n2nc(C)c(C(=O)NCC3CNCCO3)c2c1 (racemic)" recorded_result="10 µM"
molecule="Cc1cc(OCc2c(F)cccc2F)n2nc(C)c(C(=O)NC(CN)c3cccc(OC(F)(F)F)c3)c2c1 (racemic)" recorded_result="1.0 µM"
molecule=Cc1cc(OCc2c(F)ccc(F)c2F)n2nc(C)c(C(=O)Nc3cnn(CCO)c3)c2c1 recorded_result="3.0 µM"

Dear colleague, I am looking for the recorded MEC (minimum effective concentration) of the following molecule: Cc1cc(OCc2c(F)ccc(F)c2F)n2nc(C)c(C(=O)NC(C)COCC(F)(F)F)c2c1 (racemic) 0.3 µM

State the recorded MEC (minimum effective concentration) for this entry: Cc1cc(OCc2c(F)cccc2F)n2nc(C)c(C(=O)NC3CCC3(C)N)c2c1 (racemic) 3.0 µM

====

- method notes: Pharmacokinetic parameters following intravenous administration in rats (B-6)
- Assay type: in vivo, male Wistar rats
- condition set: male, Wistar, rat, plasma, terminal half-life
half-life strictly under 3 h means Met; at 3 h or over means Not met.

compound="CCCC(C)(N)CNC(=O)c1c(C2CC2)nn2c(OCc3c(F)cccc3F)cc(C)cc12 (single isomer, unassigned)" label_class=Met

Take the compound CCCC(C)(N)CNC(=O)c1c(C)nn2c(OCc3c(F)cccc3F)cc(C)cc12 (single isomer, unassigned) and say whether its half-life is less than 3 h. Not met

Determine whether this compound shows half-life lower than 3 h (ties excluded): Cc1cc(OCc2c(F)cccc2F)n2nc(C)c(C(=O)NCC(C)(N)CCC(F)(F)F)c2c1 (single isomer, unassigned) Not met

I'd appreciate it if you could check whether Cc1cc(OCc2c(F)ccc(F)c2F)n2nc(C3CC3)c(C(=O)NCC(C)(N)CCC(F)(F)F)c2c1 (single isomer, unassigned; enantiomer b) has half-life smaller than 3 h. Met

Is half-life of Cc1cc(OCc2c(F)ccc(F)c2F)n2nc(C)c(C(=O)NCC(C)(N)CCC(F)(F)F)c2c1 (single isomer, unassigned; enantiomer b) strictly below 3 h? Not met

Hello, is half-life of the following compound strictly smaller than 3 h? CCCC(C)(N)CNC(=O)c1c(C2CC2)nn2c(OCc3c(F)ccc(F)c3F)cc(C)cc12 (single isomer, unassigned; enantiomer b) Not met

====

- experimental system: recombinant guanylate cyclase reporter cell line (Rattus norvegicus, UniProt P19686+P20595)
- Construct: expressed in transfected cells
- method notes: Effect on a recombinant guanylate cyclase reporter cell line (B-2)
- Type: cell-based
- condition set: in some cases mean values for individual determinations
metric name: MEC (minimum effective concentration) (µM)
Quick reminder: number only, in µM, skip the unit.

Previously resolved entries follow.
compound="Cc1cc(OCc2c(F)cccc2F)n2nc(C)c(C(=O)NC3CCOc4c(C#N)cccc43)c2c1 (racemic) [Example 140]" recorded_result=0.3
compound="Cc1cc(OCc2c(F)ccc(F)c2F)n2nc(C)c(C(=O)NC(CCC(F)(F)C(F)(F)F)C(C)(C)O)c2c1 (single isomer, unassigned; ent-2) [Example 22]" recorded_result=0.1

Read the next record carefully.
Tell me the measured MEC (minimum effective concentration) of CCCC(C)(N)CNC(=O)c1c(C)nn2c(OCc3c(F)cccc3Cl)cc(C)cc12 (racemic) [Example 164] , please. 1.0

Value source: patent US9422285B2
